- Measurement Protocol: Cytotoxicity by MTT assay
- Format: cell-based

- Molecule: "CC(=O)Nc1ccc(NC(=O)c2cc(-c3ccc(C(F)(F)F)cc3)cnc2N)cc1 [Compound 40]"
  IC50: "> 50 µM"
- Molecule: "CC(=O)Nc1ccc(NC(=O)c2cc(-c3cccc(F)c3)cnc2N)cc1 [Compound 39]"
  IC50: "> 50 µM"
- Molecule: "CC(=O)Nc1ccc(NC(=O)c2cc(-c3ccc(F)c(C)c3)cnc2N)cc1 [Compound 50]"
  IC50: "> 50 µM"
- Molecule: "CC(=O)Nc1ccc(NC(=O)c2cc(-c3ccccc3C(F)(F)F)cnc2N)cc1 [Compound 42]"
  IC50: "> 50 µM"
- Molecule: "Cc1ccc(S(=O)(=O)/C=C/C#N)cc1 [Bay11-7082, reference compound]"
  IC50: "22.7 µM"
- Molecule: "CCc1ccc(-c2cnc(N)c(C(=O)Nc3ccc(Cl)cc3)c2)cc1 [Compound 17]"
  IC50: "> 25 µM"
- Molecule: "COc1ccccc1-c1cnc(N)c(C(=O)Nc2ccc(NC(C)=O)cc2)c1 [Compound 33]"
  IC50: "> 50 µM"
- Molecule: "CCc1ccc(-c2cnc(N)c(C(=O)Nc3ccc(OC(F)(F)F)cc3)c2)cc1 [Compound 18]"
  IC50: "> 25 µM"
- Molecule: "CC(=O)Nc1ccc(NC(=O)c2cc(-c3cccc(Cl)c3)cnc2N)cc1 [Compound 36]"
  IC50: "> 50 µM"
- Molecule: "CCc1ccc(-c2cc(C(=O)Nc3ccc(NC(C)=O)cc3)ccn2)cc1 [Compound 24]"
  IC50: "> 25 µM"
- Molecule: "COc1ccc(-c2cnc(N)c(C(=O)Nc3ccc(NC(C)=O)cc3)c2)c(F)c1 [Compound 52]"
  IC50: "> 50 µM"
- Molecule: "CC(=O)Nc1ccc(NC(=O)c2cc(-c3cccc(C)c3)cnc2N)cc1 [Compound 29]"
  IC50: "> 50 µM"
- Molecule: "CC(=O)Nc1ccc(NC(=O)c2cc(-c3ccccc3C#N)cnc2N)cc1 [Compound 48]"
  IC50: "> 50 µM"
- Molecule: "CC(=O)Nc1ccc(NC(=O)c2cc(-c3cccc(C(F)(F)F)c3)cnc2N)cc1 [Compound 41]"
  IC50: "> 50 µM"
- Molecule: "CCc1ccc(-c2cnc(N)c(C(=O)Nc3ccccc3C)c2)cc1 [Compound 9]"
  IC50: "> 25 µM"
- Molecule: "CC(=O)Nc1ccc(NC(=O)c2cc(-c3ccc(N)cc3Cl)cnc2N)cc1 [Compound 51]"
  IC50: "> 50 µM"
- Molecule: "CCc1ccc(-c2cnc(N)c(C(=O)Nc3cccc(NC(C)=O)c3)c2)cc1 [Compound 14]"
  IC50: "> 25 µM"
- Molecule: "CCc1ccc(-c2cnc(N)c(C(=O)Nc3ccc(OC)cc3)c2)cc1 [Compound 20]"
  IC50: "> 25 µM"
- Molecule: "CC(=O)Nc1ccc(NC(=O)c2cc(-c3ccc(S(C)(=O)=O)cc3)cnc2N)cc1 [Compound 30]"
  IC50: "> 50 µM"
- Molecule: "CC(=O)Nc1ccc(NC(=O)c2cc(-c3ccc(C)cc3)cnc2N)cc1 [Compound 28]"
  IC50: "> 50 µM"
- Molecule: "CCc1ccc(-c2cccc(C(=O)Nc3ccc(NC(C)=O)cc3)c2)cc1 [Compound 23]"
  IC50: "> 25 µM"
- Molecule: "COc1cccc(-c2cnc(N)c(C(=O)Nc3ccc(NC(C)=O)cc3)c2)c1 [Compound 32]"
  IC50: "> 50 µM"
- Molecule: "COc1ccc(-c2cnc(N)c(C(=O)Nc3ccc(NC(C)=O)cc3)c2)cc1 [Compound 31]"
  IC50: "> 50 µM"
- Molecule: "CC(=O)Nc1ccc(NC(=O)c2cc(-c3ccc(F)cc3)cnc2N)cc1 [Compound 38]"
  IC50: "> 50 µM"
- Molecule: "CC(=O)Nc1ccc(NC(=O)c2cc(-c3cccc(C#N)c3)cnc2N)cc1 [Compound 47]"
  IC50: "> 50 µM"
- Molecule: "COc1ccc(-c2cnc(N)c(C(=O)Nc3ccc(NC(C)=O)cc3)c2)c(OC)c1OC [Compound 34]"
  IC50: "> 50 µM"

* * *

- Test system: NF-κB
- Measurement Protocol: NF-κB transcriptional activity dual-luciferase reporter assay, TNF-α stimulated
- Assay type: cell-based
- Condition: Homo sapiens, HEK-293T, HEK293T cells transfected with NF-κB reporter plasmid, stimulated by TNF-α
In this section we review reported IC50 values for a set of compounds.
Measured Metric: IC50

- Compound: "COc1cccc(-c2cnc(N)c(C(=O)Nc3ccc(NC(C)=O)cc3)c2)c1 [Compound 32]"
  Measured Metric: "IC50"
  Result: "> 2000 nM"
- Compound: "CCc1ccc(-c2cnc(N)c(C(=O)Nc3ccccc3)c2)cc1 [Compound 6]"
  Measured Metric: "IC50"
  Result: "1620 nM"
- Compound: "CCc1ccc(-c2cnc(N)c(C(=O)Nc3ccc(C(N)=O)cc3)c2)cc1 [Compound 22]"
  Measured Metric: "IC50"
  Result: "> 2000 nM"

Source of measurements: paper PMC10281321
